For each of the molecules below, state its Vd.
Test: Mouse PK studies after oral and IV dosing
Format: in vivo
Settings: in vivo, iv, 1 mg/kg, IV, dose 1 mg/kg, read-out: IV VSS
I only need the number, in L/kg, no unit after it.

Need Vd of C[C@H]1CC2(CCN(c3ccc(C(=O)N4CCC(N5CCN(c6ccc7c(c6)C(=O)N(C6CCC(=O)NC6=O)C7=O)CC5)CC4)cc3F)CC2)CN1c1ccc(C#N)c(Cl)c1 (some centres unmarked) , thanks.
0.9

Need Vd of C[C@H]1CC2(CCN(c3ccc(C(=O)N4CCN(C5CCN(c6ccc7c(c6)C(=O)N(C6CCC(=O)NC6=O)C7=O)CC5)CC4)cc3F)CC2)CN1c1ccc(C#N)c(Cl)c1 (some centres unmarked) , thanks.
3.1

Need Vd of C[C@H]1CC2(CCN(c3ccc(C(=O)N4CCN(CC5CCN(c6ccc7c(c6)C(=O)N(C6CCC(=O)NC6=O)C7=O)CC5)CC4)nn3)CC2)CN1c1ccc(C#N)c(Cl)c1 (some centres unmarked) , thanks.
2.09

Need Vd of C[C@H]1CC2(CCN(c3ccc(C(=O)N4CCN(C5CN(c6ccc7c(c6)C(=O)N(C6CCC(=O)NC6=O)C7)C5)CC4)cc3)CC2)CN1c1ccc(C#N)c(Cl)c1 (some centres unmarked) , thanks.
0.9

Need Vd of C[C@H]1CC2(CCN(c3cnc(C(=O)N4CCC(CN5Cc6cc7c(cc6C5)C(=O)N(C5CCC(=O)NC5=O)C7=O)CC4)cn3)CC2)CN1c1ccc(C#N)c(Cl)c1 (some centres unmarked) , thanks.
2.59

----------
Assay: Mouse PK studies after oral and IV dosing
Format: in vivo
Conditions: in vivo, po, 3 mg/kg
Rule: Tmax under 2 h gives NO, otherwise YES.

Please check the record C[C@H]1CC2(CCN(c3ccc(C(=O)N4CCN(CC5CN(c6ccc7c(c6)C(=O)N(C6CCC(=O)NC6=O)C7=O)C5)CC4)cc3F)CC2)CN1c1ccc(C#N)c(Cl)c1 (some centres unmarked) and state if its Tmax is at or above 2 h.
NO

Please check the record C[C@H]1CC2(CCN(c3ccc(C(=O)N4CCN(CC5CCN(c6cc7c(cc6F)C(=O)N(C6CCC(=O)NC6=O)C7=O)CC5)CC4)nn3)CC2)CN1c1ccc(C#N)c(Cl)c1 (some centres unmarked) and state if its Tmax is at or above 2 h.
NO

Please check the record C[C@H]1CC2(CCN(c3ccc(C(=O)N4CCC(CN5CCN(c6cc7c(cc6F)C(=O)N(C6CCC(=O)NC6=O)C7=O)CC5)CC4)nn3)CC2)CN1c1ccc(C#N)c(Cl)c1 (some centres unmarked) and state if its Tmax is at or above 2 h.
NO

Please check the record C[C@H]1CC2(CCN(c3ccc(C(=O)N4CC[C@@H](CN5CCN(c6ccc7c(c6)C(=O)N(C6CCC(=O)NC6=O)C7=O)CC5)C4)cc3)CC2)CN1c1ccc(C#N)c(Cl)c1 (some centres unmarked) and state if its Tmax is at or above 2 h.
NO

Please check the record C[C@H]1CC2(CCN(c3ccc(C(=O)N4CCC(N5CCN(c6ccc7c(c6)C(=O)N(C6CCC(=O)NC6=O)C7=O)CC5)CC4)cc3F)CC2)CN1c1ccc(C#N)c(Cl)c1 (some centres unmarked) and state if its Tmax is at or above 2 h.
YES

Please check the record C[C@H]1CC2(CCN(c3ccc(C(=O)N4CCN(C5CCN(c6ccc7c(c6)C(=O)N(C6CCC(=O)NC6=O)C7=O)CC5)CC4)cc3)CC2)CN1c1ccc(C#N)c(Cl)c1 (some centres unmarked) and state if its Tmax is at or above 2 h.
NO

Please check the record C[C@H]1CC2(CCN(c3cnc(C(=O)N4CCC(CN5CCN(c6cc7c(cc6F)C(=O)N(C6CCC(=O)NC6=O)C7=O)CC5)CC4)cn3)CC2)CN1c1ccc(C#N)c(Cl)c1 (some centres unmarked) and state if its Tmax is at or above 2 h.
NO

Please check the record C[C@H]1CC2(CCN(c3ccc(C(=O)N4CCN(C5CCN(c6cc7c(cc6F)C(=O)N(C6CCC(=O)NC6=O)C7=O)CC5)CC4)cc3)CC2)CN1c1ccc(C#N)c(Cl)c1 (some centres unmarked) and state if its Tmax is at or above 2 h.
YES

Please check the record C[C@H]1CC2(CCN(c3ccc(C(=O)N4CCN(C5CCN(c6ccc7c(c6)C(=O)N(C6CCC(=O)NC6=O)C7=O)CC5)CC4)cc3F)CC2)CN1c1ccc(C#N)c(Cl)c1 (some centres unmarked) and state if its Tmax is at or above 2 h.
NO

Please check the record C[C@H]1CC2(CCN(c3ccc(C(=O)N4CCN(CC5CN(c6cc7c(cc6F)C(=O)N(C6CCC(=O)NC6=O)C7=O)C5)CC4)cc3)CC2)CN1c1ccc(C#N)c(Cl)c1 (some centres unmarked) and state if its Tmax is at or above 2 h.
YES

Please check the record C[C@H]1CC2(CCN(c3ccc(C(=O)N4CCN(CC5CCN(c6ccc7c(c6)C(=O)N(C6CCC(=O)NC6=O)C7=O)CC5)CC4)nn3)CC2)CN1c1ccc(C#N)c(Cl)c1 (some centres unmarked) and state if its Tmax is at or above 2 h.
NO

Please check the record C[C@H]1CC2(CCN(c3cnc(C(=O)N4CCN(CC5CN(c6cc7c(cc6F)C(=O)N(C6CCC(=O)NC6=O)C7=O)C5)CC4)cn3)CC2)CN1c1ccc(C#N)c(Cl)c1 (some centres unmarked) and state if its Tmax is at or above 2 h.
NO

Please check the record C[C@H]1CC2(CCN(c3cnc(C(=O)N4CCC(N5CCN(c6cc7c(cc6F)C(=O)N(C6CCC(=O)NC6=O)C7=O)CC5)CC4)cn3)CC2)CN1c1ccc(C#N)c(Cl)c1 (some centres unmarked) and state if its Tmax is at or above 2 h.
NO

Please check the record C[C@H]1CC2(CCN(c3ccc(C(=O)N4CCN(C5CN(c6cc7c(cc6F)C(=O)N(C6CCC(=O)NC6=O)C7=O)C5)CC4)cc3)CC2)CN1c1ccc(C#N)c(Cl)c1 (some centres unmarked) and state if its Tmax is at or above 2 h.
YES

Please check the record C[C@H]1CC2(CCN(c3ccc(C(=O)N4CCN(CC5CN(c6cc7c(cc6F)C(=O)N(C6CCC(=O)NC6=O)C7=O)C5)CC4)nn3)CC2)CN1c1ccc(C#N)c(Cl)c1 (some centres unmarked) and state if its Tmax is at or above 2 h.
NO

Please check the record C[C@H]1CC2(CCN(c3ccc(C(=O)N4CCN(CC5CN(c6ccc7c(c6)C(=O)N(C6CCC(=O)NC6=O)C7=O)C5)CC4)nn3)CC2)CN1c1ccc(C#N)c(Cl)c1 (some centres unmarked) and state if its Tmax is at or above 2 h.
NO

Please check the record C[C@H]1CC2(CCN(c3cnc(C(=O)N4CCC(CN5CCN(c6ccc7c(c6)C(=O)N(C6CCC(=O)NC6=O)C7=O)CC5)CC4)cn3)CC2)CN1c1ccc(C#N)c(Cl)c1 (some centres unmarked) and state if its Tmax is at or above 2 h.
NO

Please check the record C[C@H]1CC2(CCN(c3cnc(C(=O)N4CCN(CC5CCN(c6ccc7c(c6)C(=O)N(C6CCC(=O)NC6=O)C7=O)CC5)CC4)cn3)CC2)CN1c1ccc(C#N)c(Cl)c1 (some centres unmarked) and state if its Tmax is at or above 2 h.
NO

----------
For each of the compounds below, state its DC50.
Target: AR protein (Homo sapiens)
Construct: endogenous in cells; host or cells: VCaP
Sequence (P10275 whole entry): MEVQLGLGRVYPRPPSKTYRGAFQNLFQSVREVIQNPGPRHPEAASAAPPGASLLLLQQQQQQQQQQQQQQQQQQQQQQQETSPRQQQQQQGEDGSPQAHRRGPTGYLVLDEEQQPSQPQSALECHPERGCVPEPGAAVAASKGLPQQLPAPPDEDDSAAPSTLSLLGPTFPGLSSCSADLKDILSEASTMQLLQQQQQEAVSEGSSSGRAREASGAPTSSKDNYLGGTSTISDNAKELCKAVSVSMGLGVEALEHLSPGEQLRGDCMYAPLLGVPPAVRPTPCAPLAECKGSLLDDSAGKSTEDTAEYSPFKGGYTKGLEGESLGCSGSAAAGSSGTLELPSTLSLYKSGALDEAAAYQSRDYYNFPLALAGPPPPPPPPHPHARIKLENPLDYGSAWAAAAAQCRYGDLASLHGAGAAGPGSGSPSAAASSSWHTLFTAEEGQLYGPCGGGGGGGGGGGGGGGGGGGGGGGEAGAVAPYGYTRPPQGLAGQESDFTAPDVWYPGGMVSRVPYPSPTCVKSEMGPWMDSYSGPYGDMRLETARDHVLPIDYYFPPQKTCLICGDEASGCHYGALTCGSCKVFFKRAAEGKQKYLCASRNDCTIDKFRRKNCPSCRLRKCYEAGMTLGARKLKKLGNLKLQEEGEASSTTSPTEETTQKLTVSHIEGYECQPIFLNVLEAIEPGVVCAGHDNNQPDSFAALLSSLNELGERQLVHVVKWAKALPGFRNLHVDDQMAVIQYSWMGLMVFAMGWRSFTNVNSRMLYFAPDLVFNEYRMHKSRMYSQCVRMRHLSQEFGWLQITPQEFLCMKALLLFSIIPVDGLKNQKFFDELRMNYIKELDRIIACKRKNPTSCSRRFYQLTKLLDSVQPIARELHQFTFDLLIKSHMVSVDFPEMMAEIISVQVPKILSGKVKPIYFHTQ
Assay: Western blotting analysis of AR protein levels in VCaP cells, band quantification, DC50/DC90
Type: cell-based
Details: VCaP cells, Table 6; read-out: VCaP DC50

Need DC50 of C[C@H]1CC2(CCN(c3cnc(C(=O)N4CCC(N5CCN(c6cc7c(cc6F)C(=O)N(C6CCC(=O)NC6=O)C7=O)CC5)CC4)cn3)CC2)CN1c1ccc(C#N)c(Cl)c1 (stereo partly drawn) , thanks.
1 to 10 nM

Need DC50 of C[C@H]1CC2(CCN(c3ccc(C(=O)N4CCN(C5CN(c6cc7c(cc6F)C(=O)N(C6CCC(=O)NC6=O)C7=O)C5)CC4)cc3F)CC2)CN1c1ccc(C#N)c(Cl)c1 (stereo partly drawn) , thanks.
< 1 nM

Need DC50 of C[C@H]1CC2(CCN(c3ccc(C(=O)N4CCN(C5CN(c6cc7c(cc6F)C(=O)N(C6CCC(=O)NC6=O)C7=O)C5)CC4)nn3)CC2)CN1c1ccc(C#N)c(Cl)c1 (stereo partly drawn) [Cpd. No. 536] , thanks.
< 1 nM

----------
Assay: Mouse PK studies after oral and IV dosing
Type: in vivo
Conditions: in vivo, iv, 1 mg/kg, IV, dose 1 mg/kg, read-out: IV T1/2 (converted)
For each of the compounds below, state its half-life.
I only need the number, in h, no unit after it.

Need half-life of C[C@H]1CC2(CCN(c3ccc(C(=O)N4CCC(N5CCN(c6ccc7c(c6)C(=O)N(C6CCC(=O)NC6=O)C7=O)CC5)CC4)cc3F)CC2)CN1c1ccc(C#N)c(Cl)c1 (stereo partly drawn) [Cpd. No. 511] , thanks.
8

Need half-life of C[C@H]1CC2(CCN(c3cnc(C(=O)N4CCC(CN5CCN(c6cc7c(cc6F)C(=O)N(C6CCC(=O)NC6=O)C7=O)CC5)CC4)cn3)CC2)CN1c1ccc(C#N)c(Cl)c1 (stereo partly drawn) [Cpd. No. 493] , thanks.
4.9

Need half-life of C[C@H]1CC2(CCN(c3ccc(C(=O)N4CCN(CC5CN(c6cc7c(cc6F)C(=O)N(C6CCC(=O)NC6=O)C7=O)C5)CC4)cc3)CC2)CN1c1ccc(C#N)c(Cl)c1 (stereo partly drawn) [Cpd. No. 502] , thanks.
10
